Numbers sourced from ChEMBL document CHEMBL1125626.

- Tested on: Escherichia coli
- Assay Explanation: Minimum inhibitory concentration against Escherichia coli TEM X3 (inoculum, 10e4 cfu per spot)(TEM I type lactamase producer)
Assignment: determine reported MIC for the given compounds.
One number for each entry, in µg/mL.

Required: MIC, one value per compound below.
1. Cn1nnnc1SCC1=C(C(=O)OC(c2ccccc2)c2ccccc2)N2C(=O)[C@@H](Nc3nc4ccccc4[nH]3)C2SC1 (stereo partly drawn)
2. Cn1nnnc1SCC1=C(C(=O)OC(c2ccccc2)c2ccccc2)N2C(=O)[C@@H](Nc3nc4cc(O)ccc4[nH]3)C2SC1 (stereo partly drawn)
3. CC(=O)OCC1=C(C(=O)OC(C)(C)C)N2C(=O)[C@@H](Nc3nc4cc[nH]cc-4n3)C2SC1 (stereo partly drawn)

OUTPUT:
4
1
32

---

- System: Escherichia coli
- Assay Explanation: Minimum inhibitory concentration against Escherichia coli TEM X3 (inoculum, 10e4 cfu per spot)(TEM I type lactamase producer)
Assignment: determine reported MIC for the given compounds.
Numbers only, in µg/mL.

Field: example entries. Status: answers known.
> print(dat)
                                   compound  measured
1  CO/N=C(\C(=O)N[C@@H]1C(=O)N2C(C(=O)O)=C(COC(C)=O)CS[C@H]12)c1csc(N)n1      0.06
2  CC1=C(C(=O)OC(c2ccccc2)c2ccccc2)N2C(=O)[C@@H](NC3=NC(C)C(C)N3)C2SC1 (stereo partly specified)         4
3  CC(=O)OCC1=C(C(=O)OC(c2ccccc2)c2ccccc2)N2C(=O)[C@@H](Nc3nc4cc(CN)ccc4[nH]3)C2SC1 (stereo partly specified)         2
4  CC(=O)OCC1=C(C(=O)OC(c2ccccc2)c2ccccc2)N2C(=O)[C@@H](Nc3nc4cc(C(F)(F)F)ccc4[nH]3)C2SC1 (stereo partly specified)        32
5  CC(=O)OCC1=C(C(=O)OC(c2ccccc2)c2ccccc2)N2C(=O)[C@@H](Nc3nc4cc(O)ccc4[nH]3)C2SC1 (stereo partly specified)         1
6  CC1=C(C(=O)OC(c2ccccc2)c2ccccc2)N2C(=O)[C@@H](NC3=NC(c4ccc(O)c(O)c4)CN3)C2SC1 (stereo partly specified)         2
7  CC1(C)S[C@@H]2[C@H](/N=C/N3CCCCCC3)C(=O)N2[C@H]1C(=O)O         1
8  CC1=C(C(=O)OC(c2ccccc2)c2ccccc2)N2C(=O)[C@@H](NC3=NCCN3)C2SC1 (stereo partly specified)         2

Required: MIC, one value per compound below.
1. Cn1nnnc1SCC1=C(C(=O)OC(C)(C)C)N2C(=O)[C@@H](NC3=NCCN3)C2SC1 (stereo partly specified)
2. CC(=O)OCC1=C(C(=O)OC(C)(C)C)N2C(=O)[C@@H](Nc3nc4ccccc4n3C)C2SC1 (stereo partly specified)

OUTPUT:
1
64

---

- Tested on: Escherichia coli
- Assay Explanation: Minimum inhibitory concentration against Escherichia coli DCO (inoculum, 10e4 cfu per spot)
- Type: functional
Assignment: determine reported MIC for the given compounds.
Give bare numbers, in µg/mL.

> print(dat)
                                   compound  experimental.system  measured
1  Cn1nnnc1SCC1=C(C(=O)OC(C)(C)C)N2C(=O)[C@@H](NC3=NCCN3)C2SC1 (some centres undefined)     Escherichia coli         8
2  CC1=C(C(=O)OC(c2ccccc2)c2ccccc2)N2C(=O)[C@@H](NC3=NCC(C)N3)C2SC1 (some centres undefined)     Escherichia coli         8
3  CC(=O)OCC1=C(C(=O)OC(c2ccccc2)c2ccccc2)N2C(=O)[C@@H](Nc3nc4c(C)cccc4[nH]3)C2SC1 (some centres undefined)     Escherichia coli         8

With those in mind, consider the next compound.
MIC for Escherichia coli with input CC(=O)OCC1=C(C(=O)OC(c2ccccc2)c2ccccc2)N2C(=O)[C@@H](Nc3nc4cc(O)ccc4[nH]3)C2SC1 (some centres undefined) equals 0.12
